target: Delta-type opioid receptor (Rattus norvegicus); experiment: Displacement of [3H]deltorphin 2 from delta opioid receptor in Sprague-Dawley rat brain P2 synaptosomal membrane
Sequence (P33533 whole entry): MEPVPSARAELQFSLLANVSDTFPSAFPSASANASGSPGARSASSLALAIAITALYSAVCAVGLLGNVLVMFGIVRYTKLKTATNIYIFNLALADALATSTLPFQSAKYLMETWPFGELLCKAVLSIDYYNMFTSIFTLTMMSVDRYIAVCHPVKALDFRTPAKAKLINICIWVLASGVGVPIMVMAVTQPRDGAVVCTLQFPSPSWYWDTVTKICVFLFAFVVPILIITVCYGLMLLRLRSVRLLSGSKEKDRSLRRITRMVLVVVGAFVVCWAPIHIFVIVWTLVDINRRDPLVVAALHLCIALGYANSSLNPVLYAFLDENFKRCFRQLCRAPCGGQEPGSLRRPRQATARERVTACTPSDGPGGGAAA
Starred links: 1 amine or outer side, 2 acyl side, 3 side chain; linkers in the order of their positions; H or OH if unused. Non-standard residues stand in square brackets, D forms with d. Residues, ends and D or L forms follow the SMILES beside them. *: point of attachment. Dmt = Cc1cc(O)cc(C)c1C[C@H](N)C(=O)O; εLys = N[C@@H](CCCCN[*:1])C(=O)[*:2]; Tic = O=C(O)[C@@H]1Cc2ccccc2CN1; NHBn = c1ccc(CN*)cc1; NHPh = c1ccc(N*)cc1
Hi there, I'd appreciate the recorded Ki for every entry that follows.
The response must be a number in nM with no trailing unit.

Sure, the documented Ki for `CC(=O)N[C@@H](CCCCNC(=O)[C@@H]1Cc2ccccc2CN1C(=O)[C@@H](N)Cc1c(C)cc(O)cc1C)C(=O)NCc1ccccc1` is 0.21

Reported Ki of `CC(=O)N[C@@H](CCCCNC(=O)[C@@H]1Cc2ccccc2CN1C(=O)[C@@H](N)Cc1c(C)cc(O)cc1C)c1nc2ccccc2[nH]1` : 0.21

The measured Ki associated with Cc1cc(O)cc(C)c1C[C@H](N)C(=O)N1Cc2ccccc2C[C@H]1C(=O)NCCCC[C@H](N)C(=O)Nc1ccccc1 (H-[Dmt]-[Tic]-[εLys]-NHPh) reads 2.02

Ki measured on Cc1cc(O)cc(C)c1C[C@H](N)C(=O)N1Cc2ccccc2C[C@H]1C(=O)NCCCC[C@H](N)C(=O)NCc1ccccc1 (H-[Dmt]-[Tic]-[εLys]-NHBn) = 1

# Ki (molecule: `Cc1cc(O)cc(C)c1C[C@H](N)C(=O)N1Cc2ccccc2C[C@H]1C(=O)NCCCC[C@H](NC(=O)OCc1ccccc1)C(=O)Nc1ccccc1` ) is 0.47

Just so you know, measured Ki for `Cc1cc(O)cc(C)c1C[C@H](N)C(=O)N1Cc2ccccc2C[C@H]1C(=O)NCCCC[C@H](N)c1nc2ccccc2[nH]1` came out at 2.64

Data point: `Cc1cc(O)cc(C)c1C[C@H](N)C(=O)N1Cc2ccccc2C[C@H]1C(=O)NCCCC[C@H](NC(=O)OCc1ccccc1)C(=O)NCc1ccccc1` ; Ki = 0.53

molecule `Cc1cc(O)cc(C)c1C[C@H](N)C(=O)N1Cc2ccccc2C[C@H]1C(=O)NCCCC[C@H](NC(=O)OCc1ccccc1)c1nc2ccccc2[nH]1` , Ki observed: 0.86

Form: molecule = `CC(=O)N[C@@H](CCCCNC(=O)[C@@H]1Cc2ccccc2CN1C(=O)[C@@H](N)Cc1c(C)cc(O)cc1C)C(=O)Nc1ccccc1` ; Ki = 0.22
